Reference source: PubChem BioAssay (NCI)

Reported TGI values follow for various molecules
- System: HCT-116 colon
- Method Notes: NCI tumour cell line growth inhibition, 48 h

Study these solved cases before continuing.
CC(C)OP(=O)(NC(=S)c1ccccc1)OC(C)C; > 100 µM
O=C(O)C1CC(O)CN1 (stereo unspecified); > 100 µM
N/C(=N\N=C\c1ccc2c(c1)OCCO2)NO; > 100 µM
CN(C)c1ccc(/C=c2\sc3nc4ccccc4n3c2=O)cc1; > 100 µM
CN(C)c1nc(Cl)c2c(-c3ccccc3)c(-c3ccccc3)oc2n1; > 100 µM
O=C1c2ccc(O)c(O)c2C(=O)c2c(O)ccc(O)c21; 45.2 µM
CO/N=C(\C)CCC#Cc1ccccc1C(=O)OC; > 10 µM
Cn1c(-c2cccc([N+](=O)[O-])c2)[n+](C)c2ccccc21; > 100 µM
O=C(c1ccccc1)c1cn(/N=C\c2ccccc2)c(=O)nc1-c1ccccc1; > 100 µM
NC(N)=NS(=O)(=O)c1ccc(Nc2c3ccccc3nc3c(C(=O)Nc4ccc(S(N)(=O)=O)cc4)cccc23)cc1; > 100 µM

Identify TGI associated with the molecule CO/N=C(\C)c1cccc(Nc2c3ccccc3nc3occc23)c1
21.2 µM
